- Tested on: Leishmania donovani promastigotes
- METHOD_SUMMARY: In vitro antileishmanial activity assay, promastigotes (MTT)
- Assay type: cell-based
- CONDITION_DETAILS: TC50 RAW 264.7 / IC50 promastigotes
Tag: Criterion met if measured Therapeutic Index (TC50/IC50) promastigotes is not below 400, Criterion not met if it is.

Is it the case that Cc1nn2c(=O)c3c([nH]c2c1-c1ccc(Cl)cc1)CCCC3 has Therapeutic Index (TC50/IC50) promastigotes reaching or exceeding 400?
Criterion not met

Item CC(C)(C)C(O)C(Oc1ccc(-c2ccccc2)cc1)n1cncn1 (stereo not drawn) with Therapeutic Index (TC50/IC50) promastigotes of 400 or above?
Criterion not met

Evaluate CC(C)(C)OC(=O)N1CCN(c2[nH]nnc2-c2ccc(Oc3ccccc3)cc2)CC1 : Therapeutic Index (TC50/IC50) promastigotes at minimum 400?
Criterion met

Record CNC(=O)C1Cc2ccccc2N1C(=O)Cc1ccc(F)cc1 (stereo not drawn) ; criterion: Therapeutic Index (TC50/IC50) promastigotes no lower than 400. Met?
Criterion met

Given CCc1nn(C)c(C(=O)NCc2ccc(Oc3ccc(C)cc3)cc2)c1Cl , state whether its Therapeutic Index (TC50/IC50) promastigotes is at least 400.
Criterion met

Kindly determine if Therapeutic Index (TC50/IC50) promastigotes recorded for C[C@@H]1[C@H](O)[C@@H](C)/C=C/C=C/C=C/C=C/C=C/C=C/C=C/[C@H](O[C@@H]2O[C@H](C)[C@@H](O)[C@H](N)[C@@H]2O)C[C@@H]2O[C@](O)(C[C@@H](O)C[C@@H](O)[C@H](O)CC[C@@H](O)C[C@@H](O)CC(=O)O[C@H]1C)C[C@H](O)[C@H]2C(=O)O [Amphotericin B, amphotericin B, reference compound] is above or exactly 400.
Criterion not met

Value source: paper PMC7176276
